Tested on: HEK293 cells
Assay: Preliminary screening as mRNA vectors, EGFP mRNA transfection of HEK293 cells
Type: cell-based
Details: HEK293 cells, 96-well plates, EGFP mRNA 50 ng per well; percentage of GFP fluorescent cells relative to total number of cells (Hoechst)
Experimental: Cell line: HEK293 cells (ATCC CRL-1573™) Medium: DMEM supplemented with 10% fetal bovine serum (Invitrogen) Screening: cell transfection on 96-well plates Detection (readout): percentage of the number of GFP fluorescent cells relative to the total number of cells (the total number of cells was determined using nucleus dye Hoechst). Lipofectamine2000 (Invitrogen) was used as the positive control. […]
We label by threshold. Values of Absolute mRNA transfection efficiency in HEK293 cells strictly beneath 0.5% are criterion met. Values of 0.5% and up are criterion not met.

[[record]]
entry_smiles = "CCCCCCCCCCCCNc1nc(NCCCCCCCCCCC)nc(NCC2CCN(C)CC2)n1"
class = "criterion met"

[[record]]
entry_smiles = "CCCCCCCCCCCCCCSc1nc(NCCCN2CCN(C)CC2)nc(SCCCCCCCCC)n1"
class = "criterion not met"

[[record]]
entry_smiles = "CCCCCCCCCCCCCCCSc1nc(NCCCN(C)C)nc(SCCCCCCCCCC)n1"
class = "criterion not met"

[[record]]
entry_smiles = "CCCCCCCCCCCCCCCCSc1nc(NCC2CCN(C)CC2)nc(SCCCCCCCCC)n1"
class = "criterion not met"

[[record]]
entry_smiles = "CCCCCCCCCCCCNc1nc(NCCCCCC)nc(NCCN2CCOCC2)n1"
class = "criterion met"

[[record]]
entry_smiles = "CCCCCCCNc1nc(NCCCCCCC)nc(NCC2CCN(C)CC2)n1"
class = "criterion met"

[[record]]
entry_smiles = "CCCCCCCCCCCCCCCCCCSc1nc(NCCCN(C)C)nc(SCCCCCCCC)n1"
class = "criterion not met"

[[record]]
entry_smiles = "CCCCCCCCCCCCCCCSc1nc(NCCN(C)C)nc(SCCCCCCCC)n1"
class = "criterion met"

[[record]]
entry_smiles = "CCCCCCCCCCCCCCCCSc1nc(NCCN(C)C)nc(SCCCCCCCCCC)n1"
class = "criterion met"

[[record]]
entry_smiles = "CCCCCCCCCCCCCCCCSc1nc(NCCN2CCCCC2)nc(SCCCCCCCCCC)n1"
class = "criterion not met"

[[record]]
entry_smiles = "CCCCCCCCCCCCN(CCCCCCCCCCCC)c1nc(NCCCCCCCCC)nc(NCCN2CCOCC2)n1"
class = "criterion not met"

[[record]]
entry_smiles = "CCCCCCCCCCCCCCCCSc1nc(NCCN(CC)CC)nc(SCCCCCCCCC)n1"
class = "criterion not met"

[[record]]
entry_smiles = "CCCCCCCCCCCNc1nc(NN)nc(NCCCN2CCN(C)CC2)n1"
class = "criterion met"

[[record]]
entry_smiles = "CCCCCCCCCCCCN(CCCCCCCCCCCC)c1nc(NCCCCCC)nc(NCCCN2CCOCC2)n1"
class = "criterion met"

[[record]]
entry_smiles = "CCCCCCCCCCCCCCCCCCNc1nc(NCCN2CCN(C)CC2)nc(N(CCCCCCCCCCCC)CCCCCCCCCCCC)n1"
class = "criterion not met"

[[record]]
entry_smiles = "CCCCCCCCCCCNc1nc(NCCCCCCCC)nc(NCCN(CC)CC)n1"
class = "criterion met"

[[record]]
entry_smiles = "CCCCCCCCCCCCCCCCNc1nc(NCCCCCCCCCCCCCCC)nc(NCCN2CCCC2)n1"
class = "criterion not met"

[[record]]
entry_smiles = "CCCCCCCCCCCCCCCCCCNc1nc(NCCCCCCCCCCCCC)nc(NCCN2CCN(C)CC2)n1"
class = "criterion not met"

[[record]]
entry_smiles = "CCCCCCCCCCCCCCCCSc1nc(NCCN2CCCCC2)nc(SCCCCCCCCC)n1"
class = "criterion not met"

[[record]]
entry_smiles = "CCCCCCCCCCCCNc1nc(NCCCCCCCCC)nc(NCCN2CCCCC2)n1"
class = "criterion not met"

[[record]]
entry_smiles = "CCCCCCCCCCCNc1nc(NCCCCCCCCCCC)nc(NCC2CCN(C)CC2)n1"
class = "criterion not met"

[[record]]
entry_smiles = "CCCCCCCCCSc1nc(NCCN(CC)CC)nc(SCCCCCCCCC)n1"
class = "criterion not met"

[[record]]
entry_smiles = "CCCCCCCCCCCCCCCCCCNc1nc(NCCCCCCCC)nc(NCCN2CCCC2)n1"
class = "criterion not met"

[[record]]
entry_smiles = "CCCCCCCCCCCCCCCCNc1nc(NCCCCCCCCCCCC)nc(NCCN2CCCC2)n1"
class = "criterion not met"

[[record]]
entry_smiles = "CCCCCCCCCCCCCNc1nc(NCCCCCCCCC)nc(NCCN(CC)CC)n1"
class = "criterion met"

[[record]]
entry_smiles = "CCCCCCCCCNc1nc(NCCCCCCCC)nc(NCCCN(C)C)n1"
class = "criterion met"

[[record]]
entry_smiles = "CCCCCCCCCCCCCCCCNc1nc(NCCCCCCCCCCCCCCCC)nc(NCCN(C)C)n1"
class = "criterion not met"

[[record]]
entry_smiles = "CCCCCCCCCCCCCCCCNc1nc(NCCCCCCCCCCCCC)nc(NCCCN(C)C)n1"
class = "criterion not met"

[[record]]
entry_smiles = "CCCCCCCCCCCCNc1nc(NCCN2CCOCC2)nc(N(CCCCCCCCCCCC)CCCCCCCCCCCC)n1"
class = "criterion met"

[[record]]
entry_smiles = "CCCCCCCCCCCCCCCSc1nc(NCCN2CCN(C)CC2)nc(SCCCCCCCCC)n1"
class = "criterion not met"

[[record]]
entry_smiles = "CCCCCCCCCCCCN(CCCCCCCCCCCC)c1nc(NCCCCCCCC)nc(NCCN(C)C)n1"
class = "criterion met"

